Target: T1, cynomolgus monkey 5T4 antigen (cynomolgus monkey, UniProt Q4R8Y9 35-420)
T1 construct: whole, on cells; also called cyno 5T4
T1 sequence (looked up): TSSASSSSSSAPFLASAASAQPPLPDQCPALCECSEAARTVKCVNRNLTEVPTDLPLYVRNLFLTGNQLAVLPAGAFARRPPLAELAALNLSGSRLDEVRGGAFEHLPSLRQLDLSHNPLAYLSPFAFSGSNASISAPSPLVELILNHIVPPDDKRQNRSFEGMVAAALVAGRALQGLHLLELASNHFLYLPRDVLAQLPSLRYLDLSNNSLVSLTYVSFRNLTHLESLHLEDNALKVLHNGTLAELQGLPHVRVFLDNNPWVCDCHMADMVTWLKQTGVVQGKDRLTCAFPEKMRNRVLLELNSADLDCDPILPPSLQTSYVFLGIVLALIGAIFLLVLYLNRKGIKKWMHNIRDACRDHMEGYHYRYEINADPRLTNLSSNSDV
Experiment: flow cytometry, CHOZN cells expressing cyno 5T4
Description: 17 antibodies were selected and affinity to 5T4 antigen was measured using MDA-MB-468 cells, PA-1 cells and Chinese Hamster Ovary (CHO) mammalian cells expressing human or cyno 5T4 antigen (Table 2). In the current application the utilized CHO cells are referred to as CHOZN as these CHO cells expressing human or cyno 5T4 antigen were obtained using the CHOZN® Platform of Sigma-Aldrich. […]
measure_name: EC50

Query: // Input: prior art anti-5T4 antibody H8 (H8 humanized variant 1) (antibody, human IgG1, kappa, V domains shown) VH: QVQLVQSGAEVKKPGASVKVSCKASGYSFTGYYMHWVKQSPGQGLEWIGRINPNNGVTLYNQKFKDRVTMTRDTSISTAYMELSRLRSDDTAVYYCARSTMITNYVMDYWGQGTLVTVSS VL: DIVMTQSPDSLAVSLGERATINCKASQSVSNDVAWYQQKPGQSPKLLISYTSSRYAGVPDRFSGSGSGTDFTLTISSLQAEDVAVYFCQQDYNSPPTFGGGTKLEIKR . Output its EC50 only.
Response: 8.11 µg/mL

Query: // Input: chimeric anti-5T4 monoclonal antibody 829 (antibody, human IgG1, V domains shown) VH: QSLEESGGRLVTPGTPLTLTCTASGFSLSSYDMSWVRQAPGKGLEYIGWINSDDGAYYANWAKGRFTISRTSTTVDLKITSPTTEDTATYFCARDAGSTYLYGLDPWGPGTLVTVSS VL: DVVMTQTPSSVSAGVGGTVTIKCQASQSISSYLAWYQQKPGQRPKLLIYAASTLASGVSSRFKGSGSGTEYTLTINDLESADAATYYCQCTYYGGTYNTFGGGTEVVVK . Output its EC50 only.
Response: 0.22 µg/mL

Query: // Input: chimeric anti-5T4 monoclonal antibody 848 (antibody, human IgG1, V domains shown) VH: QSVEESGGRLVTPGTPLTLTCTVSGFSLSSYTMSWVRQAPGKGLEWIGIISSIGSIWYASWAKGRFTISKTSTTVDLKMTSLTTEDTATYFCARDGTGSKYYTWDRLDLWGQGTLVTVSS VL: NIVMTQTPSPVSGAVGGTVTINCQASQSIYNELSWYQQKPGQPPKLLIYYTSTLASGVSSRFKGSGSGTQFTLTISGVESVDAATYYCQQGYSSSDVDNVFGGGTEVVVK . Output its EC50 only.
Response: 0.12 µg/mL

Values were extracted from patent US20210317231A1.
